Where do these numbers come from? They come from PubChem BioAssay AID463173.

// survival lookup, one value per entry
# Tested on: DeltatarO mutant
# assay.name: S. aureus survival, RN4220 and DeltatarO strains – OD600, teichoic acid synthesis inhibitors, primary screen (AID 463173)
# study.conditions: S. aureus RN4220 wild type/DeltatarO growth, OD600, 18 h, active compounds read low, screened at 18.75 µg/mL (by protocol)
About 4,300 (8.3%) of roughly 52,000 compounds were called active. The sample as a whole holds a higher share of actives than the screen did.
Respond numerically; units are % and should not be typed.

Consider the worked cases shown below.
[[record]]
compound = "O=C1CSC(=S)N1C1CCS(=O)(=O)C1 (stereo not drawn)"
measurement_name = "survival"
experimental_result = 97

[[record]]
compound = "O=C1/C(=C/C2=Cc3ccccc3OC2)SC(=S)N1C1CCS(=O)(=O)C1 (stereo not drawn)"
measurement_name = "survival"
experimental_result = 44


**Query** Identify the reported survival for the following entry. `CC1=CC(C)(C)N(C(=O)Cc2ccccc2)c2ccccc21`
**Result** 115
